- System name: Prostaglandin G/H synthase 1 (Mus musculus)
- Experimental protocol: Inhibitory activity against Prostaglandin G/H synthase 1 in mice
Experimental endpoint: pIC50
Just so you know, pIC50 here is -log10 of the concentration in molar units; reply with that number alone.

Prompt: Tell me its pIC50 given "O=C(/C=C/c1ccco1)c1cccnc1" as the entry.
Completion: 4.22

---

- System name: Polyunsaturated fatty acid 5-lipoxygenase (Mus musculus, UniProt P48999)
- Sequence (P48999 whole entry): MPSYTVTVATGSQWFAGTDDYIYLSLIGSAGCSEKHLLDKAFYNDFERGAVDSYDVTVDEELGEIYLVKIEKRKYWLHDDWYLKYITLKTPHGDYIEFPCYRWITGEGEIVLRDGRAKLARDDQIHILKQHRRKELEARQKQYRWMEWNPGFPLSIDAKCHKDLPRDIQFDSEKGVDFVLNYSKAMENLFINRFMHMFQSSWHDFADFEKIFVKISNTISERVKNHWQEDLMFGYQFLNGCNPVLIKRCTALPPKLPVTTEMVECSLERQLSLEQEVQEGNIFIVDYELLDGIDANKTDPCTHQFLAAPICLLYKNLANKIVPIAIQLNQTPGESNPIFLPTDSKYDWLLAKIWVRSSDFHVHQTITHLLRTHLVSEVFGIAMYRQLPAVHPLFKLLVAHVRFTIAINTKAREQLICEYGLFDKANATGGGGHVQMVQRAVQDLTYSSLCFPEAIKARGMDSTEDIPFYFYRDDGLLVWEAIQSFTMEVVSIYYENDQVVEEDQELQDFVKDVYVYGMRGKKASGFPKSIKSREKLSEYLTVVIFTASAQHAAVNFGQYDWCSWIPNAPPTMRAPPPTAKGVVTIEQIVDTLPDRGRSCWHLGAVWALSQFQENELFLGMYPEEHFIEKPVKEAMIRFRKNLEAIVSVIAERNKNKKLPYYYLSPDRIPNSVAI
- Experimental protocol: Inhibitory activity against […] in mice
Experimental endpoint: IC50
Write the figure, then the unit, nothing else.

Prompt: Tell me its IC50 given "O=C(/C=C/c1ccsc1)c1cccnc1" as the entry.
Completion: 10 µM

---

- System name: Prostaglandin G/H synthase 2 (Mus musculus, UniProt Q05769)
- Sequence (Q05769 whole entry): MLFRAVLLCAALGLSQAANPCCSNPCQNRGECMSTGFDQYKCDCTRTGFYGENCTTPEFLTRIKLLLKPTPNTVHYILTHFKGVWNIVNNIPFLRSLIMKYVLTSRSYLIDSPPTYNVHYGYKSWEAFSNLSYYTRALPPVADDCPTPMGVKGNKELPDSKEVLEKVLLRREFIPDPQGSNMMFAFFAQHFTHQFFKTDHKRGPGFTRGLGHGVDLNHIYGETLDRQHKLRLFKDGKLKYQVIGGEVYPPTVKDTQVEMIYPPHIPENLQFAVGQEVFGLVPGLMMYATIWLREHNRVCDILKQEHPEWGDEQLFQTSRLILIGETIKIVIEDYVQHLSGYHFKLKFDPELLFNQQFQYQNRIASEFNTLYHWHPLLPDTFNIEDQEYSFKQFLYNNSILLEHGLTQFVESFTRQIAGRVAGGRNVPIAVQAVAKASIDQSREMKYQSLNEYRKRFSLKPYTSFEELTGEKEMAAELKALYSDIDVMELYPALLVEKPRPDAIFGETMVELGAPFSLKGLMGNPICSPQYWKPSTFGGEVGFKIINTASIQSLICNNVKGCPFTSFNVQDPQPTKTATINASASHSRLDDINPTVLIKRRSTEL
- Experimental protocol: Inhibitory activity against cyclooxygenase-2 in micc
Experimental endpoint: IC50
Write the figure, then the unit, nothing else.

Prompt: Give IC50 for this entry on Prostaglandin G/H synthase 2 (Mus musculus, UniProt Q05769): "O=C(/C=C/c1ccoc1)c1ccccn1"
Completion: 12 µM

---

- System name: Prostaglandin G/H synthase 2 (Mus musculus, UniProt Q05769)
- Experimental protocol: Inhibitory activity against murine Prostaglandin G/H synthase 2.
Could you please report measured pIC50 for the items listed next?
Just so you know, pIC50 here is -log10 of the concentration in molar units; reply with that number alone.

Prompt: Tell me its pIC50 given "O=C(/C=C/c1cccs1)c1ccccc1" as the entry.
Completion: 5.04

Prompt: Tell me its pIC50 given "O=C(/C=C/c1cccs1)c1cccs1" as the entry.
Completion: 5.47

Prompt: Tell me its pIC50 given "O=C(/C=C/c1ccco1)c1cccnc1" as the entry.
Completion: 4.92

Prompt: Tell me its pIC50 given "O=C(/C=C/c1ccccc1)c1ccccn1" as the entry.
Completion: 4.54

Prompt: Tell me its pIC50 given "O=C(/C=C/c1ccco1)c1ccccn1" as the entry.
Completion: 5.13

Prompt: Tell me its pIC50 given "O=C(/C=C/c1ccsc1)c1cccs1" as the entry.
Completion: 4.57

Prompt: Tell me its pIC50 given "O=C(/C=C/c1ccco1)c1ccc(Cl)s1" as the entry.
Completion: 4.85

Prompt: Tell me its pIC50 given "O=C(/C=C/c1ccoc1)c1cccnc1" as the entry.
Completion: 5.10

Prompt: Tell me its pIC50 given "O=C(/C=C/c1ccccc1)c1ccccc1" as the entry.
Completion: 4.95

Prompt: Tell me its pIC50 given "Cc1ccsc1/C=C/C(=O)c1ccccn1" as the entry.
Completion: 4.63

Prompt: Tell me its pIC50 given "O=C(/C=C/c1ccco1)c1cccs1" as the entry.
Completion: 4.86

Prompt: Tell me its pIC50 given "O=C(/C=C/c1ccsc1)c1ccccn1" as the entry.
Completion: 5.28

Prompt: Tell me its pIC50 given "O=C(/C=C/c1ccsc1)c1cccnc1" as the entry.
Completion: 4.74

Prompt: Tell me its pIC50 given "O=C(/C=C/c1ccccn1)c1ccco1" as the entry.
Completion: 5.72

Prompt: Tell me its pIC50 given "O=C(/C=C/c1ccco1)c1ccco1" as the entry.
Completion: 4.54

---

- System name: Polyunsaturated fatty acid 5-lipoxygenase (Mus musculus)
- Experimental protocol: Inhibitory activity against murine […].
pIC50: −log10 of the molar value.
Classification field: 1 (yes) = pIC50 at or over 5; 0 (no) = pIC50 under 5.

Prompt: Tell me whether pIC50 is at least 5 here: "O=C(/C=C/c1ccco1)c1cccs1"
Completion: 0 (no)

Prompt: Tell me whether pIC50 is at least 5 here: "O=C(/C=C/c1ccccn1)c1ccco1"
Completion: 1 (yes)

Prompt: Tell me whether pIC50 is at least 5 here: "Cc1ccsc1/C=C/C(=O)c1ccccn1"
Completion: 1 (yes)

---

- System name: Prostaglandin G/H synthase 1 (Mus musculus, UniProt P22437)
- Sequence (P22437 whole entry): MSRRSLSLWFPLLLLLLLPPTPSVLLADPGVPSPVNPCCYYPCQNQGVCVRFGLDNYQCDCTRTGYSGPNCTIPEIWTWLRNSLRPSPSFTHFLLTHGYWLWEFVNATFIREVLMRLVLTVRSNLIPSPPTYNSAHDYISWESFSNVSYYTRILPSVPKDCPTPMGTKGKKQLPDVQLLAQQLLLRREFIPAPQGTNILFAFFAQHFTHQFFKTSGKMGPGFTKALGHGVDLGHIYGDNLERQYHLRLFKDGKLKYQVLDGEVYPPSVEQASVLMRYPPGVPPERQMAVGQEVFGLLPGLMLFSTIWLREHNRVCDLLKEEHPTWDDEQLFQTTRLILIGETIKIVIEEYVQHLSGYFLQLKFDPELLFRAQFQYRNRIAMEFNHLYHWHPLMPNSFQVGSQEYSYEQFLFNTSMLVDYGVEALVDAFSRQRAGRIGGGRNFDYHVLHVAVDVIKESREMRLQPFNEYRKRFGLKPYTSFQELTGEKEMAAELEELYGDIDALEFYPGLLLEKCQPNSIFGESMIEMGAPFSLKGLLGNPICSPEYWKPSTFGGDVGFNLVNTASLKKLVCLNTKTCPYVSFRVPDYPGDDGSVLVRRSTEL
- Experimental protocol: Inhibitory activity against murine prostaglandin G/H synthase 1.
Experimental endpoint: IC50 (µM)
Enter your answer as a number in µM; do not include the unit.

Prompt: Tell me its IC50 given "O=C(/C=C/c1ccco1)c1ccccn1" as the entry.
Completion: 23.6

Prompt: Tell me its IC50 given "Cc1ccsc1/C=C/C(=O)c1ccccn1" as the entry.
Completion: 40.1

Prompt: Tell me its IC50 given O=C(/C=C/c1ccccc1)c1ccccc1 [CHALCONE] as the entry.
Completion: 22.1

Prompt: Tell me its IC50 given "O=C(/C=C/c1ccsc1)c1cccs1" as the entry.
Completion: 59.9

Prompt: Tell me its IC50 given "O=C(/C=C/c1ccoc1)c1ccccn1" as the entry.
Completion: 23.6

Prompt: Tell me its IC50 given "O=C(/C=C/c1ccco1)c1ccco1" as the entry.
Completion: 80.7

Prompt: Tell me its IC50 given "O=C(/C=C/c1ccccn1)c1ccco1" as the entry.
Completion: 65.3

Prompt: Tell me its IC50 given "O=C(/C=C/c1ccoc1)c1cccnc1" as the entry.
Completion: 21

Prompt: Tell me its IC50 given "O=C(/C=C/c1cccs1)c1cccs1" as the entry.
Completion: 9.01

Prompt: Tell me its IC50 given "O=C(/C=C/c1cccs1)c1ccccc1" as the entry.
Completion: 46.2

---

- System name: Polyunsaturated fatty acid 5-lipoxygenase (Mus musculus, UniProt P48999)
- Experimental protocol: Inhibitory activity against murine […].
Experimental endpoint: pIC50
Just so you know, pIC50 here is -log10 of the concentration in molar units; reply with that number alone.

Prompt: Tell me its pIC50 given "O=C(/C=C/c1ccoc1)c1cccnc1" as the entry.
Completion: 4.87

Prompt: Tell me its pIC50 given "O=C(/C=C/c1ccco1)c1ccccn1" as the entry.
Completion: 4.87

Prompt: Tell me its pIC50 given "O=C(/C=C/c1ccsc1)c1ccccn1" as the entry.
Completion: 5.12

Prompt: Tell me its pIC50 given "O=C(/C=C/c1ccco1)c1cccnc1" as the entry.
Completion: 4.92

Every entry's value here was drawn from ChEMBL document CHEMBL1146736.
